System: Echinochloa esculenta
protocol.details: Herbicidal activity against Echinochloa esculenta assessed as inhibition of seed germination at 1000 nM after 5 days relative to control
Assay type: functional
test.settings: 120 h
observed.property: inhibition at 1 µM

>  <compound>
O=C1C(C(O)c2cccc(Cl)c2)CCCN1Cc1ccccc1 (mixture of isomers)

>  <measurement>
> 90%

$$$$
>  <compound>
O=C1C(C(O)c2ccc(Cl)cc2Cl)CCCN1Cc1ccccc1 (mixture of isomers)

>  <measurement>
50%

$$$$
>  <compound>
O=C1C(C(O)c2ccccc2)CCCN1Cc1ccccc1 (mixture of isomers)

>  <measurement>
> 90%

$$$$
>  <compound>
O=C1C(C(O)c2ccc3c(c2)OCCO3)CCCN1C/C=C/c1ccccc1 (mixture of isomers)

>  <measurement>
> 90%

$$$$
>  <compound>
CCCCCCC(O)C1CCCN(Cc2ccccc2)C1=O (stereo not given)

>  <measurement>
> 90%

$$$$

###

The entries below come with measured inhibition at 1 µM values attached.
Test system: Echinochloa esculenta
protocol.details: Herbicidal activity against Echinochloa esculenta assessed as inhibition of seed germination at 1000 nM after 5 days relative to control
Format: functional
test.settings: 120 h

>  <compound>
Cc1ccccc1C(O)C1CCCN(Cc2ccccc2)C1=O (mixture of isomers)

>  <inhibition at 1 µM>
> 90%

$$$$
>  <compound>
O=C1C(C(O)c2cccc3ccccc23)CCCN1Cc1ccccc1 (mixture of isomers)

>  <inhibition at 1 µM>
< 49%

$$$$
>  <compound>
COc1cc2c(cc1C(O)C1CCCN(Cc3ccccc3)C1=O)OCCO2 (mixture of isomers)

>  <inhibition at 1 µM>
50%

$$$$
>  <compound>
O=C1C(C(O)c2ccc3c(c2)OCCO3)CCCN1/C=C/c1ccccc1 (mixture of isomers)

>  <inhibition at 1 µM>
> 90%

$$$$
>  <compound>
O=C1C(C(O)c2ccc3ccccc3n2)CCCN1Cc1ccccc1 (mixture of isomers)

>  <inhibition at 1 µM>
> 90%

$$$$
>  <compound>
COc1ccc(C(O)C2CCCN(Cc3ccccc3)C2=O)c(OC)c1 (mixture of isomers)

>  <inhibition at 1 µM>
< 49%

$$$$
>  <compound>
O=C1C(C(O)c2ccc(Oc3ccccc3)cc2)CCCN1Cc1ccccc1 (mixture of isomers)

>  <inhibition at 1 µM>
< 49%

$$$$
>  <compound>
O=C1C(C(O)c2cnc3ccccc3c2)CCCN1Cc1ccccc1 (mixture of isomers)

>  <inhibition at 1 µM>
< 49%

$$$$
>  <compound>
C=CCN1CCCC(C(O)c2ccc3c(c2)OCCO3)C1=O (mixture of isomers)

>  <inhibition at 1 µM>
50%

$$$$
>  <compound>
O=C1C(C(O)C/C=C/c2ccccc2)CCCN1Cc1ccccc1 (mixture of isomers)

>  <inhibition at 1 µM>
50%

$$$$
>  <compound>
COc1ccc(C(O)C2CCCN(Cc3ccccc3)C2=O)cc1 (mixture of isomers)

>  <inhibition at 1 µM>
> 90%

$$$$
>  <compound>
COc1c(C(O)C2CCCN(Cc3ccccc3)C2=O)ccc2c1OCCO2 (mixture of isomers)

>  <inhibition at 1 µM>
> 90%

$$$$
>  <compound>
O=C1C(C(O)c2ccnc3ccccc23)CCCN1Cc1ccccc1 (mixture of isomers)

>  <inhibition at 1 µM>
> 90%

$$$$
>  <compound>
O=C1C(C(O)c2ccc3c(c2)OCCO3)CCCN1c1ccccc1 (mixture of isomers)

>  <inhibition at 1 µM>
< 49%

$$$$
>  <compound>
COc1ccccc1C(O)C1CCCN(Cc2ccccc2)C1=O (mixture of isomers)

>  <inhibition at 1 µM>
50%

$$$$
>  <compound>
CC(C)CCC(O)C1CCCN(Cc2ccccc2)C1=O (mixture of isomers)

>  <inhibition at 1 µM>
50%

$$$$
>  <compound>
O=C1C(C(O)c2cccc([N+](=O)[O-])c2)CCCN1Cc1ccccc1 (mixture of isomers)

>  <inhibition at 1 µM>
50%

$$$$
>  <compound>
O=C1C(C(O)c2ccc3c(c2)OCC(COCc2ccccc2)O3)CCCN1Cc1ccccc1 (mixture of isomers)

>  <inhibition at 1 µM>
> 90%

$$$$
